Test system: KM12 colon
measurement description: NCI tumour cell line growth inhibition, 48 h
endpoint: TGI

Example entries begin here.
>  <compound>
c1ccc(N2N=NC3C4CC(C5c6ccccc6C45)C32)cc1 (stereo not given)

>  <TGI>
> 100 µM

$$$$
>  <compound>
CN(C)CCCN=c1c2ccccc2n(C)c2[nH]c(=O)n(C)c(=O)c12

>  <TGI>
42.4 µM

$$$$

Alright, here's another compound for you.
Reported TGI ( CN(CC1NCCCC1O)C12CC3CC(CC(C3)C1)C2 (stereo not given) ) = > 100 µM

----------
System: BT-549 breast
measurement description: NCI tumour cell line growth inhibition, 48 h
endpoint: TGI

Below: 2 molecules and their reported TGI.
>  <molecule>
CC(C)(N)C(=O)N[C@@H]1C(=O)N2[C@@H]1SC(C)(C)[C@@H]2C(=O)O

>  <endpoint>
TGI

>  <experimental result>
> 100 µM

$$$$
>  <molecule>
Cn1c(=O)c(-c2c(Cl)cccc2Cl)cc2cnc(Nc3ccc(I)cc3)nc21

>  <endpoint>
TGI

>  <experimental result>
0.445 µM

$$$$

// TGI (BT-549 breast) for CCOP(=O)(OCC)C(C)(CC)/N=C(\N)NC#N (stereo not given) = > 100 µM

Entry Nc1nc(-c2ccc3ccccc3c2)cc(-c2cc(-c3ccc4ccccc4c3)nc(N)n2)n1 under BT-549 breast had TGI of > 100 µM

Entry COc1ccc2c(c1)CC1N(C)CCC13CCCCC23 (stereo not given) under BT-549 breast had TGI of > 100 µM

----------
Below, each entry is listed with its recorded GI50.
Test system: PC-3 prostate
measurement description: NCI tumour cell line growth inhibition, 48 h

Worked set:
>  <compound>
CC/C(=C(/CC)c1ccc(O)cc1)c1ccc(O)cc1

>  <GI50>
5.75 µM

$$$$
>  <compound>
O=C(NC(Cc1ccccc1)C(=O)CCl)OCc1ccccc1 (stereo not given)

>  <GI50>
6.13 µM

$$$$
>  <compound>
ClCc1ccc(-c2ccc(Cn3cnc4c(Cl)ncnc43)cc2)cc1

>  <GI50>
2.8 µM

$$$$
>  <compound>
CNC(=O)c1cc(Oc2ccc3nc(NC(=O)Nc4cc(C(F)(F)F)cc(C(F)(F)F)c4)sc3c2)ccn1

>  <GI50>
0.611 µM

$$$$
>  <compound>
CN1CCN(Cn2nc(-c3cc(F)c(Cl)cc3Cl)oc2=S)CC1

>  <GI50>
43 µM

$$$$
>  <compound>
O=C(Nc1nc(-c2ccccc2Cl)cs1)c1cc(-c2ccc(Cl)cc2)nc2ccc(Cl)cc12

>  <GI50>
3.25 µM

$$$$

Moving on to the next compound.
The reported GI50 of the compound Oc1[nH]c2ccccc2c1/C=c1/ccc2c(c1)N=C(c1cc(F)cc(F)c1)N=2 was 3.37 µM

----------
System: A498 renal
measurement description: NCI tumour cell line growth inhibition, 48 h
endpoint: TGI

Example entries and their recorded answers appear below.
>  <molecule>
O=C(c1ccccc1)c1c2n(c3c1cc(O)c1ccccc13)CCN2

>  <experimental result>
35.4 µM

$$$$
>  <molecule>
O=C1C=CC(=O)[C@H]2C3C=CC(C4C3C3(Cl)C(Cl)=C(Cl)[C@]4(Cl)C3(Cl)Cl)[C@@H]12 (some centres undefined)

>  <experimental result>
31.7 µM

$$$$
>  <molecule>
O=C1Nc2c(ccc(Cl)c2Cl)/C1=C\c1cc(C(F)(F)F)cc(C(F)(F)F)c1

>  <experimental result>
13.6 µM

$$$$
>  <molecule>
C=C(C)[C@@H]1CCC2=C(CC[C@]3(C)[C@@H]([C@@H](CCC=C(C)C)C(=O)O)[C@H](O)C[C@@]23C)[C@@]1(C)CCC(=O)O

>  <experimental result>
> 100 µM

$$$$
>  <molecule>
CC1=C(C(=O)NCCCN(CCO)CCO)CC(C(=O)NCCCN(CCO)CCO)=C(C)N1

>  <experimental result>
> 100 µM

$$$$

The molecule identified as CON(C(=O)OC(C)(C)C)c1ccccc1 registered its TGI at > 100 µM

Recorded TGI (molecule CCOC(=O)CCC(C(=O)OCC)n1nnc2ccc(Nc3c(C)[n+]([O-])c4cc(F)c(OCC)cc4[n+]3[O-])cc21 (centres undefined) ): > 100 µM

Record NC(CSC1(c2ccc(Cl)cc2)c2ccccc2-c2ccccc21)C(=O)O (centres undefined) . Reported TGI: 35 µM

Per the records, this molecule ( COc1cc(C(=O)N(C(=O)N2CCCCC2)c2ccccc2)cc(OC)c1OC ) has TGI equal to > 100 µM

Sourced from PubChem BioAssay (NCI)
